- method: Components of the Cytosolic LPS Sensing Pathway: Gene Identification via Genome-wide siRNA Screen
- test-conditions: RAW264.7 macrophages, IL-1a HTRF, actives lie on both sides, screened at 100 nM (by protocol), cells primed 5 h with Pam3CSK4 first
The whole screen tested about 53,000 sequences, of which about 3,700 (7%) were called active.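 How the source made its calls: active means gene knockdowns whose robust z-score for IL-1 alpha signal is at least 2 or at most -2, so actives lie on both sides; inactive means the rest.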 The full list was thinned out, with actives kept by preference.
Outcomes: active, inactive

seq-text | class-label
GGUGGUAACCAAUCAUUACTT against Cd200r1 | inactive
GUACCUCAGAGCUCUGCAUTT against Helt | inactive
CCUUCUACUGGCAACCUAUTT against Zfp110 | inactive
GGAUAAGGUAAUCUCGGUATT against Olfr710 | inactive
GGAAGGUUGUAAGUUUAAATT against Krtap14 | active
CCUUGUAGUAAUAGGGAUGTT against Olfr116 | inactive
GGAAAAUUCAUCCUUAGUATT against Wdr61 | inactive
GGCUUUCCUUACCAUAUAUTT against Trim7 | inactive
GGAGAACAACAGUAAUUACTT against Reps2 | inactive
CGGUUAGACAGUGCACCAATT against Dnm1 | inactive
GCCUUUGUGAGGAUUAAACTT against Fam83f | inactive
GGCAACCAGUCUCAUCAAUTT against Scgb1b27 | inactive
GGAAUUCCUCUGUAUGAAATT against Pgr | inactive
CCCAUCAAUGCUGUUAAUUTT against Entpd5 | inactive
GGUGAGCGUGUAGAGAUGCTT against Fbxo45 | inactive
GAGCAUCCGCUACUUGGUATT against Nmnat1 | inactive
GCUUCCAAUUACUUAUCCATT against Phc3 | inactive
GCACUAUGGUAUUGAAAUUTT against Armc5 | inactive
CCUAUGUCCACCACAAAUGTT against Ifi209 | inactive
GGAGUUUGUCUUCUCUUUCTT against Foxf1 | inactive
GAGCAAUGAGCAGAGAUUCTT against H2-D4 | inactive

Provenance of the data: PubChem BioAssay AID1508600
